# target.or.test.system: DOR (Homo sapiens, UniProt P41143)
# Sequence (P41143 whole entry): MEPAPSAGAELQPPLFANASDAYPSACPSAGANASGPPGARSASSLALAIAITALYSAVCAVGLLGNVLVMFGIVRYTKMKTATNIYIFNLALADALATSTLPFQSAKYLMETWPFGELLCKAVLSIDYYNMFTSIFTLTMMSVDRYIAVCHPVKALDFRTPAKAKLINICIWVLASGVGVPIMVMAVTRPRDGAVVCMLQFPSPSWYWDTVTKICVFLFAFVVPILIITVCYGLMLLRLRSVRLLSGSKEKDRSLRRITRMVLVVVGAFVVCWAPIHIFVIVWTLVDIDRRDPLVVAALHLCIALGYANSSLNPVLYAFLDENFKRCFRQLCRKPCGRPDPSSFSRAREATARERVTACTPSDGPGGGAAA
# test.protocol: Opioid secondary binding, DOR (Table 4)
# condition.details: Opioid secondary binding activity for Formula 10 analogs
pKi: −log10 of the molar value.
pKi below 6 gives class 0; pKi at or above it gives class 1.

1. O=C(Nc1nccs1)[C@@H]1CC=C[C@@H]2CCN(CC3CC3)C(=O)[C@@H]21 (racemic)	class 0
2. Cc1ccc(NC(=O)[C@@H]2CC=C[C@@H]3CCN(c4ccccc4)C(=O)[C@@H]32)cc1Cl (racemic)	class 1

Attention now turns to another entry.
Request: Exam item: decide whether the reported pKi for O=C(Nc1ccccc1)[C@@H]1CC=C[C@@H]2CN(Cc3ccccc3)C(=O)[C@@H]21 (racemic) is at least 6.
Result: class 0

---

# target.or.test.system: KOR (Homo sapiens)
# test.protocol: Opioid secondary binding, KOR (Tables 4, 5, 8, 9)
# condition.details: Opioid secondary binding activity for Formula 10 analogs; read-out: KOR, Ki
The entries below are paired with their reported pKi.
Value format note: pKi is -log10 of concentration (mol/L); just state the number.

1) O=C(Nc1ccc(C(F)(F)F)cc1Cl)[C@@H]1CC=C[C@@H]2CCN(CCc3ccccc3)C(=O)[C@@H]21 (racemic) [compound 11877]	5.48

Request: Tell us which pKi value is on record for CC(C)N1CCC2C=CCC(C(=O)Nc3cccc(Cl)c3)C2C1=O (racemic) [compound 10844]
Result: 5.67

Request: Tell us which pKi value is on record for O=C(OCc1ccccc1)C(Cc1ccccc1)NC(=O)C1CC=CC2CCN(CCc3ccccc3)C(=O)C21 (mixture of isomers) [compound 11831]
Result: 5.82

Request: Tell us which pKi value is on record for O=C(NCc1ccc(Cl)c(Cl)c1)[C@@H]1CC=C[C@@H]2CCN(Cc3ccccc3)C(=O)[C@@H]21 (racemic) [compound 12148]
Result: 5.56

Request: Tell us which pKi value is on record for O=C(Nc1cccc(C(F)(F)F)c1)C1CC=CC2CCN(Cc3ccc(Cl)cc3)C(=O)C21 (racemic) [compound 10838]
Result: 5.82

Request: Tell us which pKi value is on record for O=C(Nc1cc(C(F)(F)F)ccc1Cl)C1CC=CC2CCN(C3CCCCC3)C(=O)C21 (racemic) [compound 11837]
Result: 7.03

Request: Tell us which pKi value is on record for O=C(Nc1cccc(Cl)c1)[C@@H]1CC=C[C@@H]2CCN(c3ccccc3)C(=O)[C@@H]21 (racemic) [compound 10821]
Result: 6.38

---

# target.or.test.system: KOR (Homo sapiens)
# test.protocol: Opioid secondary binding, KOR (Tables 4, 5, 8, 9)
# condition.details: Opioid secondary binding activity for Formula 10 analogs; read-out: KOR, Ki
The entries below are paired with their reported log10 of Ki.
Plainly stated, the numbers are log10 of Ki given in µM.

# example entries with known answers
1) O=C(Nc1ccc(Cl)c(C(F)(F)F)c1)[C@@H]1CC=C[C@@H]2CCN(c3ccccc3)C(=O)[C@@H]21 (racemic)	-1.00
2) Cc1ccc(NC(=O)[C@@H]2CC=C[C@@H]3CCN(Cc4ccccc4)C(=O)[C@@H]32)cc1C(F)(F)F (racemic)	0.06
3) O=C(Nc1ccccc1)[C@H]1CC=C[C@H]2CCN(Cc3ccccc3)C(=O)[C@@H]12	-0.86
4) O=C(Nc1ccc([N+](=O)[O-])c(C(F)(F)F)c1)[C@@H]1CC=C[C@@H]2CCN(Cc3ccccc3)C(=O)[C@@H]21 (racemic)	-0.70
5) O=C(Nc1ccc(Cl)c(C(F)(F)F)c1)C1CC=CC2CCN(Cc3ccc(Cl)cc3)C(=O)C21 (racemic)	-0.33
6) O=C(Nc1ccc(Cl)c(C(F)(F)F)c1)[C@@H]1CC=C[C@@H]2CCN(C3CCCCC3)C(=O)[C@@H]21 (racemic)	-0.95

Request: Tell us which log10 of Ki value is on record for O=C(Nc1ccc(Cl)cc1C(F)(F)F)[C@@H]1CC=C[C@@H]2CCN(c3ccccc3)C(=O)[C@@H]21 (racemic)
Result: -1.17

Request: Tell us which log10 of Ki value is on record for O=C(NC1CCCCC1)[C@@H]1CC=C[C@@H]2CCN(CC3CCCCC3)C(=O)[C@@H]21 (racemic)
Result: -0.75

Request: Tell us which log10 of Ki value is on record for CC(C)N1CCC2C=CCC(C(=O)Nc3ccc(Cl)cc3Cl)C2C1=O (racemic)
Result: 0.38

Request: Tell us which log10 of Ki value is on record for CCCCN1CC[C@H]2C=CC[C@@H](C(=O)Nc3ccc(Cl)cc3Cl)[C@H]2C1=O (racemic)
Result: 0.06

Request: Tell us which log10 of Ki value is on record for O=C(Nc1ccccc1)[C@@H]1CC=C[C@@H]2CCN(C3CCCCC3)C(=O)[C@@H]21 (racemic)
Result: -1.15

Request: Tell us which log10 of Ki value is on record for O=C(Nc1ccc(Br)c(C(F)(F)F)c1)[C@@H]1CC=C[C@@H]2CCN(c3ccccc3)C(=O)[C@@H]21 (racemic)
Result: -1.92

Request: Tell us which log10 of Ki value is on record for CCCCNC(=O)[C@@H]1CC=C[C@@H]2CCN(CCCC)C(=O)[C@@H]21 (racemic)
Result: 0.45

Request: Tell us which log10 of Ki value is on record for O=C(Nc1ccc(Cl)cc1Cl)[C@@H]1CC=C[C@@H]2CCN(c3ccccc3)C(=O)[C@@H]21 (racemic)
Result: -0.54

---

# target.or.test.system: KOR (Homo sapiens, UniProt P41145)
# Sequence (P41145 whole entry): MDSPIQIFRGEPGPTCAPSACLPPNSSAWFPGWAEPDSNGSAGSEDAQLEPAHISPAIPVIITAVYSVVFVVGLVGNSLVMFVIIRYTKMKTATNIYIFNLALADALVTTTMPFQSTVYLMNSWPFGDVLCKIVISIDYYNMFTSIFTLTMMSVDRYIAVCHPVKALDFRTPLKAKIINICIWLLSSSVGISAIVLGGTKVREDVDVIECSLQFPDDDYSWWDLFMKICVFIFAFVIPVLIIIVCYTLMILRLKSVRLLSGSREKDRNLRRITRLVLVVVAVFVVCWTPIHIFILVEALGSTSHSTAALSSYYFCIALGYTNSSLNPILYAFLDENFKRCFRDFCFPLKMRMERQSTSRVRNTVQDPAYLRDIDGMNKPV
# test.protocol: [35S]GTPγS binding functional agonist assay on membranes of CHO cells expressing hKOR (reference agonist U69593)
# Assay type: biochemical
# Set-up: expressed in transfected cells; host or cells: CHO cells, stably transfected; crude membrane fractions
# condition.details: test compound at 10 micromolar; N=4; reference agonist = 100%; CHO-cell line expressing hKOR
reported.property: KOR agonist (average percent efficacy relative to cognate agonist) (%)
Answer in %, number only, no unit symbol.

# example entries with known answers
1) COc1ccc(CNC(=O)[C@@H]2CC=C[C@@H]3CCN(C4CCCCC4)C(=O)[C@@H]32)cc1 (racemic)	29
2) CCCCN1CC[C@H]2C=CC[C@@H](C(=O)NC3CCCCC3)[C@H]2C1=O (racemic)	67.6

Shifting focus to the compound that follows.
Request: State the measured KOR agonist (average percent efficacy relative to cognate agonist) (KOR (Homo sapiens, UniProt P41145)) of COc1ccc(CN2CC[C@H]3C=CC[C@@H](C(=O)N4CCN(c5ccccc5)CC4)[C@H]3C2=O)cc1OC (racemic)
Result: 6.7

---

The entries below are paired with their reported Ki.
# target.or.test.system: DOR (Homo sapiens)
Answer in nM, number only, no unit symbol.

# example entries with known answers
1) CC(C)N(C(=O)[C@@H]1CC=C[C@@H]2CCN(c3ccccc3)C(=O)[C@@H]21)C1CCCCC1 (racemic) [compound 12140]	416
2) O=C(Nc1cc(F)c(F)c(F)c1)[C@@H]1CC=C[C@@H]2CCN(Cc3ccccc3)C(=O)[C@@H]21 (racemic) [compound 12103]	180
3) CN(C(=O)[C@@H]1CC=C[C@@H]2CCN(c3ccccc3)C(=O)[C@@H]21)c1ccccc1 (racemic) [compound 12119]	4010
4) O=C(Nc1cccnc1)[C@@H]1CC=C[C@@H]2CCN(c3ccccc3)C(=O)[C@@H]21 (racemic) [compound 11927]	2100
5) O=C(NCC1CC1)[C@@H]1CC=C[C@@H]2CCN(c3ccccc3)C(=O)[C@@H]21 (racemic) [compound 12095]	1220
6) COc1ccc(NC(=O)[C@@H]2CC=C[C@@H]3CCN(C4CCCCC4)C(=O)[C@@H]32)cc1 (racemic) [compound 8945]	5670

Request: Tell us which Ki value is on record for O=C(Nc1ccc(Cl)cc1)[C@@H]1CC=C[C@@H]2CCN(Cc3ccccc3)C(=O)[C@@H]21 (racemic) [compound 12102]
Result: 165

---

The entries below are paired with their reported pKi.
# target.or.test.system: KOR (Homo sapiens)
# test.protocol: Opioid secondary binding, KOR (Tables 4, 5, 8, 9)
# condition.details: Opioid secondary binding activity for Formula 10 analogs; read-out: KOR, Ki
Value format note: pKi is -log10 of concentration (mol/L); just state the number.

Request: State the measured pKi (KOR (Homo sapiens)) of O=C(Nc1ccc(C(F)(F)F)cc1)[C@@H]1CC=C[C@@H]2CCN(c3ccccc3)C(=O)[C@@H]21 (racemic)
Result: 6.10

Request: State the measured pKi (KOR (Homo sapiens)) of Cc1cc(NC(=O)[C@@H]2CC=C[C@@H]3CCN(c4ccccc4)C(=O)[C@@H]32)ccc1Cl (racemic)
Result: 7.47

Request: State the measured pKi (KOR (Homo sapiens)) of O=C1NCC[C@H]2C=CC[C@@H](C(=O)Nc3ccc(Cl)c(C(F)(F)F)c3)[C@@H]12 (racemic)
Result: 6.14

Request: State the measured pKi (KOR (Homo sapiens)) of O=C(Nc1ccc(Cl)c(C(F)(F)F)c1)C1CCCC2CCN(C3CCCCC3)C(=O)C21 (racemic)
Result: 6.10

Request: State the measured pKi (KOR (Homo sapiens)) of COc1ccc(CNC(=O)[C@@H]2CC=C[C@@H]3CCN(Cc4ccc(Cl)c(Cl)c4)C(=O)[C@@H]32)cc1 (racemic)
Result: 6.02

Request: State the measured pKi (KOR (Homo sapiens)) of COc1ccc(CN2CC[C@H]3C=CC[C@@H](C(=O)N4CCN(c5ccccc5)CC4)[C@H]3C2=O)cc1OC (racemic)
Result: 5.05

Request: State the measured pKi (KOR (Homo sapiens)) of CC(NC(=O)C1CC=CC2CCN(Cc3ccccc3)C(=O)C21)c1ccccc1 (mixture of isomers)
Result: 6.15

Request: State the measured pKi (KOR (Homo sapiens)) of O=C(NCc1ccc(Cl)c(C(F)(F)F)c1)[C@@H]1CC=C[C@@H]2CCN(c3ccccc3)C(=O)[C@@H]21 (racemic)
Result: 7.01

Request: State the measured pKi (KOR (Homo sapiens)) of COC(=O)C(CCSC)NC(=O)C1CC=CC2CCN(C3CCCCC3)C(=O)C21 (mixture of isomers)
Result: 5.35

Request: State the measured pKi (KOR (Homo sapiens)) of O=C(Nc1ccc(F)c(F)c1)[C@@H]1CC=C[C@@H]2CCN(c3ccccc3)C(=O)[C@@H]21 (racemic)
Result: 6.43

Request: State the measured pKi (KOR (Homo sapiens)) of O=C(Nc1ccc(Br)c(C(F)(F)F)c1)[C@@H]1CC=C[C@@H]2CCN(Cc3cccc(Br)c3)C(=O)[C@@H]21 (racemic)
Result: 6.16

Request: State the measured pKi (KOR (Homo sapiens)) of O=C(Nc1ccc(F)cc1)[C@@H]1CC=C[C@@H]2CCN(Cc3ccccc3)C(=O)[C@@H]21 (racemic)
Result: 6.56

Request: State the measured pKi (KOR (Homo sapiens)) of CC(NC(=O)C1CC=CC2CCN(C3CCCCC3)C(=O)C21)c1ccccc1 (mixture of isomers)
Result: 6.22

Request: State the measured pKi (KOR (Homo sapiens)) of O=C(NCc1ccc(Cl)c(C(F)(F)F)c1)[C@@H]1CC=C[C@@H]2CCN(C3CCCCC3)C(=O)[C@@H]21 (racemic)
Result: 6.27
